Reference for the values: ChEMBL document CHEMBL1145061

- testedTarget: Alpha-1B adrenergic receptor (Homo sapiens, UniProt P35368)
- Sequence (P35368 whole entry): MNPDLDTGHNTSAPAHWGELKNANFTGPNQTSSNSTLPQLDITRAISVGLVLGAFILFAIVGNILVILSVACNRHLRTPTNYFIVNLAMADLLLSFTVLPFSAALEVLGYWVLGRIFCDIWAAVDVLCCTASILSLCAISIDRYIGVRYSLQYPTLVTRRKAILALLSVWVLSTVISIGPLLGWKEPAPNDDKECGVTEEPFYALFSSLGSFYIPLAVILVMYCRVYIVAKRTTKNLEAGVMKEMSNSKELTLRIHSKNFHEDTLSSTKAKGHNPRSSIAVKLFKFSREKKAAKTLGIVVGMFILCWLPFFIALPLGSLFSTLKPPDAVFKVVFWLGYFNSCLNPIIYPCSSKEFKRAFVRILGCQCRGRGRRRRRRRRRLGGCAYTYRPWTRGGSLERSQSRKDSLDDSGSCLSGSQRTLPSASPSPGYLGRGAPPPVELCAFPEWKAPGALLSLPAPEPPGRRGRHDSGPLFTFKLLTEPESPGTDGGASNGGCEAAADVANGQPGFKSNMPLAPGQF
- assayProtocol: Inhibition of [3H]-prazosin binding to cloned human Alpha-1B adrenergic receptor in CHO cells (chinese hamster ovary cells)
- Assay type: cell-based
propertyLabel: Ki (nM)

>>> print(df.to_string())
                                smilesinput  scaleunit  observed
0  Cc1c(-c2ccccc2)oc2c(C(=O)NCCCN3CCN(c4ccccc4OCc4no[n+]([O-])c4C#N)CC3)cccc2c1=O         nM       6.5
1  Cc1c(-c2ccccc2)oc2c(C(=O)NCCCN3CCN(c4ccccc4OCCCO[N+](=O)[O-])CC3)cccc2c1=O         nM       1.2
2  Cc1c(-c2ccccc2)oc2c(C(=O)NCCCN3CCN(c4ccccc4OCc4no[n+]([O-])c4C(N)=O)CC3)cccc2c1=O         nM      15.9

* * *

- assayProtocol: Thiol induced NO generation, through griess reaction expressed as % NO2- in presence of 5*10e-4 M L-cysteine
Entries and their NO2- (mol/mol)
propertyLabel: NO2- (mol/mol) (%)

>>> print(df.to_string())
                                smilesinput   propertylabel  scaleunit  relationqualifier  observed
0  Cc1c(-c2ccccc2)oc2c(C(=O)NCCCN3CCN(c4ccccc4OCc4no[n+]([O-])c4C)CC3)cccc2c1=O  NO2- (mol/mol)          %                  =      1.11
1  Cc1c(-c2ccccc2)oc2c(C(=O)NCCCN3CCN(c4ccccc4OCc4no[n+]([O-])c4C#N)CC3)cccc2c1=O  NO2- (mol/mol)          %                  =      32.3
2  Cc1c(-c2ccccc2)oc2c(C(=O)NCCCN3CCN(c4ccccc4OCc4no[n+]([O-])c4C(N)=O)CC3)cccc2c1=O  NO2- (mol/mol)          %                  =      5.28
3  Cc1c(-c2ccccc2)oc2c(C(=O)NCCCN3CCN(c4ccccc4OCCCO[N+](=O)[O-])CC3)cccc2c1=O  NO2- (mol/mol)          %                  <         1

* * *

- testedTarget: Alpha-1A adrenergic receptor (Homo sapiens, UniProt P35348)
- Sequence (P35348 whole entry): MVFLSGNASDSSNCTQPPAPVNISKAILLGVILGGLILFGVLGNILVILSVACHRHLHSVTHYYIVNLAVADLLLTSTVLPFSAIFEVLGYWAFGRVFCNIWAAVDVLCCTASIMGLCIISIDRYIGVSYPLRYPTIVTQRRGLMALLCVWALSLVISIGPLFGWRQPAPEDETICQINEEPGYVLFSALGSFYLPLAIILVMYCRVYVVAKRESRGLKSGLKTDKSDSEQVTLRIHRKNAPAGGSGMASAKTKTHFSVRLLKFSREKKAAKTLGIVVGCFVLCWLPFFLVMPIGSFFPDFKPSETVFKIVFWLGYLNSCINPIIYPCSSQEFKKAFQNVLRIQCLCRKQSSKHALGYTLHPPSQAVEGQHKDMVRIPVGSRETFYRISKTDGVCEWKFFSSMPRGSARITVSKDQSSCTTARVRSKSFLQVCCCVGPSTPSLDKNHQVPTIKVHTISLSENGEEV
- assayProtocol: Inhibition of [3H]prazosin binding to cloned human Alpha-1A adrenergic receptor in CHO cells (chinese hamster ovary cells)
pKi: −log10 of the molar value.
propertyLabel: pKi

>>> df
                                smilesinput  observed
0  Cc1c(-c2ccccc2)oc2c(C(=O)NCCCN3CCN(c4ccccc4OCc4no[n+]([O-])c4C)CC3)cccc2c1=O      9.80
1  Cc1c(-c2ccccc2)oc2c(C(=O)NCCCN3CCN(c4ccccc4OCCCO[N+](=O)[O-])CC3)cccc2c1=O     10.03
2  Cc1c(-c2ccccc2)oc2c(C(=O)NCCCN3CCN(c4ccccc4OCc4no[n+]([O-])c4C(N)=O)CC3)cccc2c1=O      8.74
3  Cc1c(-c2ccccc2)oc2c(C(=O)NCCCN3CCN(c4ccccc4OCc4no[n+]([O-])c4C#N)CC3)cccc2c1=O      9.14

* * *

Entries and their Ki
- testedTarget: Alpha-1D adrenergic receptor (Homo sapiens, UniProt P25100)
- Sequence (P25100 whole entry): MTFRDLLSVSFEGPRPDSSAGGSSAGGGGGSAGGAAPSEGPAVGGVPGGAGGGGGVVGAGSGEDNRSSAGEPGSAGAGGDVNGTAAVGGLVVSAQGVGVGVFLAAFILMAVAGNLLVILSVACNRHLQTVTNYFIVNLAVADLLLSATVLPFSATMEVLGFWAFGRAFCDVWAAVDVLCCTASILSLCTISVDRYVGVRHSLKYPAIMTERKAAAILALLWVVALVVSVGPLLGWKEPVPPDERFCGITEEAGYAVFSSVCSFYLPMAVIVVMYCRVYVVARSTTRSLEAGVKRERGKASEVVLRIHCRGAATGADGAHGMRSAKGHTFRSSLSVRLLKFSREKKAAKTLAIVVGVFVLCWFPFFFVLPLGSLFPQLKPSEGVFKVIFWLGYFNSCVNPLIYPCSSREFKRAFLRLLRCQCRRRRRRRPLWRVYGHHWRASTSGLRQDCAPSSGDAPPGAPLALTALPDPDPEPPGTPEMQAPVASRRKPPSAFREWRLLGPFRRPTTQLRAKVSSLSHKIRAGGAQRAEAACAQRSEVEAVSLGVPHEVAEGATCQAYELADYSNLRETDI
- assayProtocol: Inhibition of [3H]-prazosin binding to cloned human Alpha-1D adrenergic receptor in CHO cells (chinese hamster ovary cells)
propertyLabel: Ki (nM)

In [3]: df
Out[3]:
                                smilesinput  observed
0  Cc1c(-c2ccccc2)oc2c(C(=O)NCCCN3CCN(c4ccccc4OCc4no[n+]([O-])c4C#N)CC3)cccc2c1=O       3.9
1  Cc1c(-c2ccccc2)oc2c(C(=O)NCCCN3CCN(c4ccccc4OCCCO[N+](=O)[O-])CC3)cccc2c1=O       3.5
2  Cc1c(-c2ccccc2)oc2c(C(=O)NCCCN3CCN(c4ccccc4OCc4no[n+]([O-])c4C(N)=O)CC3)cccc2c1=O      20.4
3  Cc1c(-c2ccccc2)oc2c(C(=O)NCCCN3CCN(c4ccccc4OCc4no[n+]([O-])c4C)CC3)cccc2c1=O       4.2
